assayTarget: N-formyl peptide receptor 2 (Homo sapiens, UniProt P25090)
Sequence (P25090 whole entry): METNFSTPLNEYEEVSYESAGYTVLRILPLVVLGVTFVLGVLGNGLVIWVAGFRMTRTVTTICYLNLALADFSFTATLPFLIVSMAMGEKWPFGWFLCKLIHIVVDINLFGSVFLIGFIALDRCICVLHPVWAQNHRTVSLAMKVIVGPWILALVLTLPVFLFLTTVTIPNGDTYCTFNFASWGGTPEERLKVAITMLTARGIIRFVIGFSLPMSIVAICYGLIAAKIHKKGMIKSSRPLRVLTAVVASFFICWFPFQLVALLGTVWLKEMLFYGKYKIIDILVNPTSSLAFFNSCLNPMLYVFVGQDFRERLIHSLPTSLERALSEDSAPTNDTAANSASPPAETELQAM
methodSummary: FPRL1 binding inhibitor potency, dose response, cell-based, FPR counter-screen, fluorescent ligand (AID 520)
pIC50: −log10 of the molar value.
assayReadout: pIC50

Could you share what pIC50 was measured for O=C1C(=O)N(c2ncccn2)C(c2ccc(Cl)cc2)C1C(=O)c1ccco1 (stereo not given) , tested on N-formyl peptide receptor 2 (Homo sapiens, UniProt P25090)?
< 4.18

Notebook: pull reported pIC50 for N-formyl peptide receptor 2 (Homo sapiens, UniProt P25090), entry C=CCn1c(NC(=O)c2ccccc2)c(C#N)c2nc3ccccc3nc21
< 4.18

What value of pIC50 on N-formyl peptide receptor 2 (Homo sapiens, UniProt P25090) does C=CCOc1ccc(C2C(C(=O)c3cccs3)C(=O)C(=O)N2c2nnc(C)s2)cc1 (stereo not given) have?
< 4.18

###

assayTarget: N-formyl peptide receptor 2 (Homo sapiens, UniProt P25090)
methodSummary: FPRL1 binding inhibitor potency, dose response, cell-based, FPR counter-screen, fluorescent ligand (AID 520)
Where a name gives a salt, the structure may show the parent alone.
Recorded measurements of IC50, one per entry

Below: 4 compounds and their reported IC50.
compound | IC50
CC1CCN(S(=O)(=O)c2ccc3c(c2)oc(=O)n3CC(=O)NCc2ccc3c(c2)OCO3)CC1 | > 66.7 µM
Cc1ccc(C2c3c([nH]c(=S)[nH]c3=O)N=C3CC(C)(C)CC(=O)C32)cc1 (stereo not given) | > 66.7 µM
CCCCn1c(NC(=O)CC)c(C#N)c2nc3ccccc3nc21 | > 66.7 µM
CCCc1cc(=O)n2[nH]c(C)c(-c3ccccc3)c2n1 | > 66.7 µM

Note: attention shifts to another entry.
Which measured IC50 value corresponds to CC1(C)S[C@@H]2[C@H](NC(=O)C(C(=O)O)c3ccccc3)C(=O)N2[C@H]1C(=O)O (stereo not given in full) [CARBENICILLIN DISODIUM SALT] ?
> 66.7 µM

###

assayTarget: N-formyl peptide receptor 2 (Homo sapiens, UniProt P25090)
methodSummary: FPRL1 binding inhibitor potency, dose response, cell-based, FPR counter-screen, fluorescent ligand (AID 520)
pIC50: −log10 of the molar value.
Item-by-item account of pIC50

compound | readoutValue
CCOc1cccc(C(=O)C2C(=O)C(=O)N(CCOC)C2c2ccc(C)o2)c1 (stereo not given) | < 4.18
CCCc1nc2ccccc2c2nc(N)nn12 [SMR000073509] | < 4.18
Nc1ccc(Nc2ccccc2N)cc1 [(2-aminophenyl)-(4-aminophenyl)amine] | 4.82
COC(=O)c1[nH]c(C)c(C(=O)C2C(=O)C(=O)N(CCN3CCOCC3)C2c2cccnc2)c1C (stereo not given) | < 4.18

If you can, please state the reported pIC50 value of COc1ccc(C2C(C(=O)c3ccco3)C(=O)C(=O)N2Cc2cccnc2)cc1OC (stereo not given) .
< 4.18

###

assayTarget: N-formyl peptide receptor 2 (Homo sapiens, UniProt P25090)
methodSummary: FPRL1 binding inhibitor potency, dose response, cell-based, FPR counter-screen, fluorescent ligand (AID 520)
studyConditions: inactive by the depositor's call
assayReadout: IC50 (µM)

Study these solved cases before continuing.
chemicalString | IC50 (µM)
CNc1nn(-c2cccc(Cl)c2)nc1N | 18.2
CCOC(=O)N1CCN(c2cc(NCCC(=O)O)c3c4c(onc24)-c2ccccc2C3=O)CC1 | 49.9
CCCC(=O)Nc1cc(-c2cn3cccnc3n2)ccc1OC | 22.8
COc1ccc(-c2cn3cccnc3n2)cc1NC(=O)CC(C)C | 45

a: Cc1[nH]n2c(=O)cc(-c3ccc([N+](=O)[O-])cc3)nc2c1-c1ccccc1
b: CCOc1cc(C(=O)NCc2nnc(SCC(=O)OC)n2C)cc(OCC)c1OCC
Pick one: a or b . Which one has the lower reported IC50? Refer to your chosen entry by its label in the reply.
b

###

assayTarget: N-formyl peptide receptor 2 (Homo sapiens)
methodSummary: FPRL1 binding inhibitor potency, dose response, cell-based, FPR counter-screen, fluorescent ligand (AID 520)
Item-by-item account of IC50

Known IC50 results, listed for orientation:
compound | assayTarget | readoutValue
COc1ccccc1C1C(C(=O)c2ccccc2)C(=O)C(=O)N1CC(C)O (stereo not given) | N-formyl peptide receptor 2 (Homo sapiens) | > 66.7 µM
COc1ccc(-c2nc(N3CCCC3)[nH]c(=O)c2C#N)cc1 | N-formyl peptide receptor 2 (Homo sapiens) | > 66.7 µM
CCC(CCC(=O)Nc1cccc(C(=O)O)c1)C(=O)O (stereo not given) | N-formyl peptide receptor 2 (Homo sapiens) | > 66.7 µM
COc1cc2c3c(c1)/C(=C1/SC(NC(C)=O)=NC1=O)C(=O)N3C(C)(C)C=C2C | N-formyl peptide receptor 2 (Homo sapiens) | > 66.7 µM
CC(=O)SCC(=O)N=c1sc2cc(F)ccc2n1C | N-formyl peptide receptor 2 (Homo sapiens) | > 66.7 µM
CCCOc1ccc(C2C(C(=O)c3ccco3)C(=O)C(=O)N2CCCn2ccnc2)cc1 (stereo not given) | N-formyl peptide receptor 2 (Homo sapiens) | > 66.7 µM
CCC(NC(=O)Nc1cc(OC)c(OC)c(OC)c1)(C(F)(F)F)C(F)(F)F | N-formyl peptide receptor 2 (Homo sapiens) | > 66.7 µM
Cc1nc(C)c(C(=O)C2C(=O)C(=O)N(CCCn3ccnc3)C2c2ccc(Cl)cc2)s1 (stereo not given) | N-formyl peptide receptor 2 (Homo sapiens) | > 66.7 µM

Which IC50 is listed for CCC(SC1=Nc2ccccc2C2=NC(CC(C)C)C(=O)N12)C(=O)Nc1ccc2c(c1)OCO2 (stereo not given) ?
> 66.7 µM

Find the recorded IC50 belonging to COc1ccc(OC)c(C2C(C(=O)c3cc4ccccc4o3)C(=O)C(=O)N2c2cc(C)on2)c1 (stereo not given) and report it.
> 66.7 µM

Dear colleague, I am looking for the recorded IC50 of the following compound: COC(=O)c1[nH]c(C)c(C(=O)C2C(=O)C(=O)N(CCN3CCOCC3)C2c2cccs2)c1C (stereo not given)
> 66.7 µM

Which IC50 value is on record for Cc1ccc(C(=O)C2C(=O)C(=O)N(Cc3ccccc3)C2c2cccnc2)o1 (stereo not given) ?
> 66.7 µM

###

assayTarget: N-formyl peptide receptor 2 (Homo sapiens, UniProt P25090)
methodSummary: FPRL1 binding inhibitor potency, dose response, cell-based, FPR counter-screen, fluorescent ligand (AID 520)
pIC50: −log10 of the molar value.
assayReadout: pIC50

Examples with answers:
compound | readoutValue
CCCS(=O)(=O)N1CCCC(C(=O)N2CCC(Cc3ccccc3)CC2)C1 (stereo not given) | < 4.18
COc1ccc2cnn(-c3ccccc3)c(=O)c2c1OC | < 4.18
Cc1c(CNCc2cccs2)c(C(=O)O)c(C)n1Cc1ccccc1 | < 4.18
O=C(O)C1CCCCC1C(=O)Nc1ccccc1Cl (stereo not given) | < 4.18
COc1cccc2c1C(=O)c1c(O)c3c(c(O)c1C2=O)C[C@@](O)(C(C)=O)C[C@@H]3O[C@H]1C[C@H](N)[C@H](O)[C@H](C)O1 | 4.60
CCOc1cc(C2C(C(=O)c3ccco3)C(=O)C(=O)N2CCc2ccccc2)ccc1O (stereo not given) | < 4.18
COc1cc(C2C(C(=O)c3ccco3)C(=O)C(=O)N2c2cc(C)on2)cc(Br)c1O (stereo not given) | < 4.18
Cc1c(C(=O)NC2CCCc3ccccc32)oc2ccc(S(=O)(=O)N3CCOCC3)cc12 (stereo not given) | < 4.18

Requested read-out: pIC50. Entry: CCOC(=O)C1CCN(Cc2ccc(C(=O)OC)cc2)CC1
< 4.18

What value of measured pIC50 is listed for CCCCc1c(O)n(-c2ccccc2)n(-c2ccccc2)c1=O ?
< 4.18

###

assayTarget: N-formyl peptide receptor 2 (Homo sapiens, UniProt P25090)
methodSummary: FPRL1 binding inhibitor potency, dose response, cell-based, FPR counter-screen, fluorescent ligand (AID 520)
pIC50: −log10 of the molar value.
assayReadout: pIC50

Take a look at these entries with their results.
molecule | pIC50
O=S(=O)(Nc1cccc2ncccc12)c1cccs1 [MLS000057468] | < 4.18
COc1cccc(-c2nc(CS(=O)(=O)CC(=O)NCCC(C)C)c(C)o2)c1 | < 4.18
COC(=O)Cc1n[nH]c2c1C(C1C=CCCC1)C(C#N)C(=N)O2 (stereo not given) | < 4.18
COc1ccccc1NC(=O)CSc1nnc(Cn2nnc(-c3ccccc3)n2)n1-c1ccccc1 [MLS000032410] | < 4.18
CSCCC1c2c(-c3cccs3)n[nH]c2OC(=N)C1C#N (stereo not given) | < 4.18

For the molecule CCC(C)(C(=O)NC1CCCC1)N(CC1CCCO1)C(=O)c1ccc2c(c1)OCO2 (stereo not given) [MLS000095004] , what pIC50 is on record?
< 4.18

Which value of pIC50 has been reported for CCN(CC)c1ccc(C=NC(C#N)C(=N)C#N)cc1 (stereo not given) [SMR000023871] in the records?
< 4.18

Query: pIC50; subject: Cc1ccc(C(=O)C2C(=O)C(=O)N(CC(C)O)C2c2ccc(N(C)C)cc2)cc1 (stereo not given)
< 4.18

So what does the record say about pIC50 for Cc1oc2cc(O)cc(O)c2c(=O)c1-c1ccc2c(c1)OCCCO2 ?
< 4.18

# pIC50 lookup, item Cc1nc2c(C#N)c[nH]n2c(=O)c1Cc1ccccc1
< 4.18

FYI, the data here is from BindingDB's records for doi:10.7270/Q2DF6PMF.
